Tested on: 349418-098-R-PDC complex spheroid viability
Assay: Anticancer human tumor 349418-098-R-PDC patient-derived lung adenocarcinoma cell line growth inhibition [RAS]; active = viability on the fitted dose curve at most 10% of control; inactive = the rest
Conditions: second compound 0.316 µM; first compound 0.01 µM
Text: RAS pathway inhibitors in Combinations in Complex Spheroids A high-throughput screen of multi-cell type tumor spheroids was designed to identify active combinations of RAS pathway inhibitors and targeted small molecules. Complex spheroids include a stromal component modeled by human endothelial cells (HUVEC) and fibroblasts modeled by human mesenchymal stem cells (MSCs). […] Compounds. […] If the clinical Cmax for an agent had not been determined, the highest concentration tested was 10 microM. […]
Labels: 1 (yes) for active, 0 (no) for inactive

>>> qualitative_label("CCN1CCN(Cc2ccc(Nc3ncc(F)c(-c4cc(F)c5nc(C)n(C(C)C)c5c4)n3)nc2)CC1 + C=CC(=O)N1CCN(c2nc(OCC3CCCN3C)nc3c(F)c(-c4nc(N)cc(C)c4C(F)(F)F)c(Cl)cc23)C(C)C1")
"0 (no)"
>>> qualitative_label("C=CC(=O)Nc1cc(Nc2nccc(-c3cn(C)c4ccccc34)n2)c(OC)cc1N(C)CCN(C)C + C#Cc1c(F)ccc2cc(O)cc(-c3ncc4c(N5CC6CCC(C5)N6)nc(OCC56CCCN5CC(F)C6)nc4c3F)c12")
"0 (no)"
>>> qualitative_label("Nc1ccn(C2OC(CO)C(O)C2(F)F)c(=O)n1 (stereo not given) + C#Cc1c(F)ccc2cc(O)cc(-c3ncc4c(N5CC6CCC(C5)N6)nc(OCC56CCCN5CC(F)C6)nc4c3F)c12")
"1 (yes)"
>>> qualitative_label("Nc1ccn(C2OC(CO)C(O)C2(F)F)c(=O)n1 (stereo not given) + C=CC(=O)N1CCN(c2nc(OCC3CCCN3C)nc3c(F)c(-c4nc(N)cc(C)c4C(F)(F)F)c(Cl)cc23)C(C)C1")
"1 (yes)"
>>> qualitative_label("C=CC(=O)N1CCN(c2nc(OCC3CCCN3C)nc3c(F)c(-c4nc(N)cc(C)c4C(F)(F)F)c(Cl)cc23)C(C)C1 (stereo not given) + C#Cc1c(F)ccc2cc(O)cc(-c3ncc4c(N5CC6CCC(C5)N6)nc(OCC56CCCN5CC(F)C6)nc4c3F)c12")
"0 (no)"

* * *

system: 349418-098-R-PDC complex spheroid viability; test: Anticancer human tumor 349418-098-R-PDC cell line growth inhibition [RAS]; conditions: second compound 0.0949 µM; first compound 1 µM; hits give low values;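 also: spheroids exposed to compound for seven days before viability readout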
viability, T/C strictly under 20% means true (1); at 20% or over means false (0).

>>> qualitative_label("C=CC(=O)Nc1cc(Nc2nccc(-c3cn(C)c4ccccc34)n2)c(OC)cc1N(C)CCN(C)C + CCn1c(-c2cc(N3CCN(C)CC3)cnc2C(C)OC)c2c3cc(ccc31)-c1csc(n1)CC(NC(=O)C1CC1C)C(=O)N1CCCC(N1)C(=O)OCC(C)(C)C2")
"false (0)"
>>> qualitative_label("CCN1CCN(Cc2ccc(Nc3ncc(F)c(-c4cc(F)c5nc(C)n(C(C)C)c5c4)n3)nc2)CC1 + CCn1c(-c2cccnc2C(C)OC)c2c3cc(ccc31)N1CCOC(CC(NC(=O)C(C(C)C)N(C)C(=O)C3(F)CCN(C(=O)C#CC(C)(C)N(C)C)CC3)C(=O)N3CCCC(N3)C(=O)OCC(C)(C)C2)C1")
"true (1)"
>>> qualitative_label("C=CC(=O)N1CCN(c2nc(OCC3CCCN3C)nc3c(F)c(-c4nc(N)cc(C)c4C(F)(F)F)c(Cl)cc23)C(C)C1 (configuration not stated) + CCn1c(-c2cccnc2C(C)OC)c2c3cc(ccc31)N1CCOC(CC(NC(=O)C(C(C)C)N(C)C(=O)C3(F)CCN(C(=O)C#CC(C)(C)N(C)C)CC3)C(=O)N3CCCC(N3)C(=O)OCC(C)(C)C2)C1")
"false (0)"
>>> qualitative_label("CC(=O)OC12COC1CC(O)C1(C)C(=O)C(O)C3=C(C)C(OC(=O)C(O)C(NC(=O)OC(C)(C)C)c4ccccc4)CC(O)(C(OC(=O)c4ccccc4)C21)C3(C)C (configuration not stated) + CCn1c(-c2cccnc2C(C)OC)c2c3cc(ccc31)N1CCOC(CC(NC(=O)C(C(C)C)N(C)C(=O)C3(F)CCN(C(=O)C#CC(C)(C)N(C)C)CC3)C(=O)N3CCCC(N3)C(=O)OCC(C)(C)C2)C1")
"true (1)"
>>> qualitative_label("O=C(c1ccc(F)c(F)c1Nc1ccc(I)cc1F)N1CC(O)([C@@H]2CCCCN2)C1 + CCn1c(-c2cccnc2C(C)OC)c2c3cc(ccc31)N1CCOC(CC(NC(=O)C(C(C)C)N(C)C(=O)C3(F)CCN(C(=O)C#CC(C)(C)N(C)C)CC3)C(=O)N3CCCC(N3)C(=O)OCC(C)(C)C2)C1")
"true (1)"
>>> qualitative_label("CC(Nc1ccc2c(c1)OCCn1cc(N3C(=O)OCC3C(F)F)nc1-2)C(N)=O (configuration not stated) + CCn1c(-c2cccnc2C(C)OC)c2c3cc(ccc31)N1CCOC(CC(NC(=O)C(C(C)C)N(C)C(=O)C3(F)CCN(C(=O)C#CC(C)(C)N(C)C)CC3)C(=O)N3CCCC(N3)C(=O)OCC(C)(C)C2)C1")
"true (1)"

* * *

test system: 349418-098-R-PDC complex spheroid viability; experiment: Anticancer human tumor 349418-098-R-PDC cell line growth inhibition [RAS]; conditions: second compound 0.316 µM; first compound 0.1 µM; hits give low values;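 also: spheroids exposed to compound for seven days before viability readout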
readout.kind: viability, T/C (%)

>>> experimental_value("O=C(c1ccc(F)c(F)c1Nc1ccc(I)cc1F)N1CC(O)([C@@H]2CCCCN2)C1 + C#Cc1c(F)ccc2cc(O)cc(-c3ncc4c(N5CC6CCC(C5)N6)nc(OCC56CCCN5CC(F)C6)nc4c3F)c12")
13.3
>>> experimental_value("CC(C)NCC(C(=O)N1CCN(c2ncnc3c2C(C)CC3O)CC1)c1ccc(Cl)cc1 (stereo not drawn) + C=CC(=O)N1CCN(c2nc(OCC3CCCN3C)nc3c(F)c(-c4nc(N)cc(C)c4C(F)(F)F)c(Cl)cc23)C(C)C1")
82.1
>>> experimental_value("C=CC(=O)Nc1cc(Nc2nccc(-c3cn(C)c4ccccc34)n2)c(OC)cc1N(C)CCN(C)C + C=CC(=O)N1CCN(c2nc(OCC3CCCN3C)nc3c(F)c(-c4nc(N)cc(C)c4C(F)(F)F)c(Cl)cc23)C(C)C1")
117
>>> experimental_value("C=CC(=O)Nc1cc(Nc2nccc(-c3cn(C)c4ccccc34)n2)c(OC)cc1N(C)CCN(C)C + C#Cc1c(F)ccc2cc(O)cc(-c3ncc4c(N5CC6CCC(C5)N6)nc(OCC56CCCN5CC(F)C6)nc4c3F)c12")
86.2
>>> experimental_value("Nc1ccn(C2OC(CO)C(O)C2(F)F)c(=O)n1 (stereo not drawn) + C#Cc1c(F)ccc2cc(O)cc(-c3ncc4c(N5CC6CCC(C5)N6)nc(OCC56CCCN5CC(F)C6)nc4c3F)c12")
6.21
>>> experimental_value("Nc1ccn(C2OC(CO)C(O)C2(F)F)c(=O)n1 (stereo not drawn) + C=CC(=O)N1CCN(c2nc(OCC3CCCN3C)nc3c(F)c(-c4nc(N)cc(C)c4C(F)(F)F)c(Cl)cc23)C(C)C1")
5.68
>>> experimental_value("CC(Nc1ccc2c(c1)OCCn1cc(N3C(=O)OCC3C(F)F)nc1-2)C(N)=O (stereo not drawn) + C=CC(=O)N1CCN(c2nc(OCC3CCCN3C)nc3c(F)c(-c4nc(N)cc(C)c4C(F)(F)F)c(Cl)cc23)C(C)C1")
44.9
>>> experimental_value("CCN1CCN(Cc2ccc(Nc3ncc(F)c(-c4cc(F)c5nc(C)n(C(C)C)c5c4)n3)nc2)CC1 + C#Cc1c(F)ccc2cc(O)cc(-c3ncc4c(N5CC6CCC(C5)N6)nc(OCC56CCCN5CC(F)C6)nc4c3F)c12")
28.9
>>> experimental_value("O=C(c1ccc(F)c(F)c1Nc1ccc(I)cc1F)N1CC(O)([C@@H]2CCCCN2)C1 + C=CC(=O)N1CCN(c2nc(OCC3CCCN3C)nc3c(F)c(-c4nc(N)cc(C)c4C(F)(F)F)c(Cl)cc23)C(C)C1")
12
>>> experimental_value("CC(C)n1nc(-c2ccc3oc(N)nc3c2)c2c(N)ncnc21 + C=CC(=O)N1CCN(c2nc(OCC3CCCN3C)nc3c(F)c(-c4nc(N)cc(C)c4C(F)(F)F)c(Cl)cc23)C(C)C1")
6.6
>>> experimental_value("C=CC(=O)N1CCN(c2nc(OCC3CCCN3C)nc3c(F)c(-c4nc(N)cc(C)c4C(F)(F)F)c(Cl)cc23)C(C)C1 (stereo not drawn) + C#Cc1c(F)ccc2cc(O)cc(-c3ncc4c(N5CC6CCC(C5)N6)nc(OCC56CCCN5CC(F)C6)nc4c3F)c12")
79.7
>>> experimental_value("Cc1nc(N2CCC3(CC2)COC(C)C3N)c(CO)nc1Sc1ccnc(N)c1Cl (stereo not drawn) + C=CC(=O)N1CCN(c2nc(OCC3CCCN3C)nc3c(F)c(-c4nc(N)cc(C)c4C(F)(F)F)c(Cl)cc23)C(C)C1")
89.2
>>> experimental_value("CCC(CC)c1cc(NC2CCC(N)C2)n2nccc2n1 (stereo not drawn) + C=CC(=O)N1CCN(c2nc(OCC3CCCN3C)nc3c(F)c(-c4nc(N)cc(C)c4C(F)(F)F)c(Cl)cc23)C(C)C1")
88.1
>>> experimental_value("CC1(O)CCCC1n1c(=O)c(C(F)F)cc2cnc(NC3CCN(S(C)(=O)=O)CC3)nc21 (stereo not drawn) + C#Cc1c(F)ccc2cc(O)cc(-c3ncc4c(N5CC6CCC(C5)N6)nc(OCC56CCCN5CC(F)C6)nc4c3F)c12")
41.7
>>> experimental_value("C[C@@H](NC(=O)c1ncnc(N)c1Cl)c1ncc(C(=O)Nc2cc(C(F)(F)F)c(Cl)cn2)s1 + C=CC(=O)N1CCN(c2nc(OCC3CCCN3C)nc3c(F)c(-c4nc(N)cc(C)c4C(F)(F)F)c(Cl)cc23)C(C)C1")
113
>>> experimental_value("CCN1CCN(Cc2ccc(Nc3ncc(F)c(-c4cc(F)c5nc(C)n(C(C)C)c5c4)n3)nc2)CC1 + C=CC(=O)N1CCN(c2nc(OCC3CCCN3C)nc3c(F)c(-c4nc(N)cc(C)c4C(F)(F)F)c(Cl)cc23)C(C)C1")
34.3
>>> experimental_value("Cc1nc(N2CCC3(CC2)COC(C)C3N)c(CO)nc1Sc1ccnc(N)c1Cl (stereo not drawn) + C#Cc1c(F)ccc2cc(O)cc(-c3ncc4c(N5CC6CCC(C5)N6)nc(OCC56CCCN5CC(F)C6)nc4c3F)c12")
88
>>> experimental_value("CC(C)n1nc(-c2ccc3oc(N)nc3c2)c2c(N)ncnc21 + C#Cc1c(F)ccc2cc(O)cc(-c3ncc4c(N5CC6CCC(C5)N6)nc(OCC56CCCN5CC(F)C6)nc4c3F)c12")
8.66
